system name: 3-hydroxy-3-methylglutaryl-coenzyme A reductase (Rattus norvegicus, UniProt P51639)
Sequence (P51639 whole entry): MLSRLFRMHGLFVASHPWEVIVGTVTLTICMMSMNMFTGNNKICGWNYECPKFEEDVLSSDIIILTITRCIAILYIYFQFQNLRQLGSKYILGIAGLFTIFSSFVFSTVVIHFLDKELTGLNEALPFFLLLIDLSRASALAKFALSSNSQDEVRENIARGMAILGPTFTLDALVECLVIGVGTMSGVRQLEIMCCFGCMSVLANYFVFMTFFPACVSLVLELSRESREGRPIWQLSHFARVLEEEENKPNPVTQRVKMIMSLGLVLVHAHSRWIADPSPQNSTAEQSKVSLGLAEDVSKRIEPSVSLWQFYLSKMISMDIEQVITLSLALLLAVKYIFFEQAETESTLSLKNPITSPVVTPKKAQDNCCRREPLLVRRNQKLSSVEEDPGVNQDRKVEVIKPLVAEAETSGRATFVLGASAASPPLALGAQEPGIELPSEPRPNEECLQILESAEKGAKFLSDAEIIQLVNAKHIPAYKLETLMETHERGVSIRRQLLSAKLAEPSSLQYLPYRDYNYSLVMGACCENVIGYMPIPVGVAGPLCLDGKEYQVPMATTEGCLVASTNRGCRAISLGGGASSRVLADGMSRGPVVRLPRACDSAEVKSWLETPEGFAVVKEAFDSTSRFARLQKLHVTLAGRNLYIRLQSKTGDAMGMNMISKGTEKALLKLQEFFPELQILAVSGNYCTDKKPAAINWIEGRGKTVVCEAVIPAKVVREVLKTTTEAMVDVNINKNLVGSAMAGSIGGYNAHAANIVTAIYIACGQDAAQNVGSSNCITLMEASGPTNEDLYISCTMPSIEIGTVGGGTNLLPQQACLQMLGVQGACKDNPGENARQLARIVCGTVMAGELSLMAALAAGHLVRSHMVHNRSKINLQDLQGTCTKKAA
experimental details: In vitro inhibition of solubilized HMG-CoA reductase in rat liver.
measurement kind: pIC50
When answering, recall that pIC50 equals minus log10 of the concentration in mol/L, and write that number alone.

{"compound": "CC(C)c1cc(-c2ccccc2)nc(-c2ccc(F)cc2)c1/C=C/[C@@H](O)C[C@@H](O)CC(=O)O", "system name": "3-hydroxy-3-methylglutaryl-coenzyme A reductase (Rattus norvegicus, UniProt P51639)", "meas value": 8.52}
{"compound": "CC(C)c1nc(C(C)(C)C)cc(-c2ccc(F)cc2)c1/C=C/[C@@H](O)C[C@@H](O)CC(=O)[O-].[Na+]", "system name": "3-hydroxy-3-methylglutaryl-coenzyme A reductase (Rattus norvegicus, UniProt P51639)", "meas value": 9.00}
{"compound": "CC(C)c1cc(-c2ccc(F)cc2)c(/C=C/[C@@H](O)C[C@@H](O)CC(=O)[O-])c(C(C)C)n1.[Na+]", "system name": "3-hydroxy-3-methylglutaryl-coenzyme A reductase (Rattus norvegicus, UniProt P51639)", "meas value": 8.52}

Problem: Quick one: give measured pIC50 for CC(C)c1c(CCC(O)C[C@@H](O)CC(=O)O)c(-c2ccc(F)cc2)cn1-c1ccccc1 (some centres not stated)
Result: 8.52

Problem: Tell me measured pIC50 for Cc1cc(-c2ccccc2)nc(-c2ccc(F)cc2)c1/C=C/[C@@H](O)C[C@@H](O)CC(=O)O please.
Result: 7.42

Problem: Item O=C(O)C[C@H](O)C[C@H](O)/C=C/c1c(Cl)cc(Cl)cc1-c1ccc(F)cc1 : provide pIC50
Result: 8.35

Problem: Hello, please tell me recorded pIC50 for this one: Cc1c(CCC(O)C[C@@H](O)CC(=O)O)c(-c2ccc(F)cc2)cn1-c1ccccc1 (some centres not stated)
Result: 7.46
